# assayed-target: Aurora A (Homo sapiens, UniProt O14965)
# Construct: N-terminal GST fusion with full length Aurora A (1-403 amino acids)
# Sequence (O14965 1-403): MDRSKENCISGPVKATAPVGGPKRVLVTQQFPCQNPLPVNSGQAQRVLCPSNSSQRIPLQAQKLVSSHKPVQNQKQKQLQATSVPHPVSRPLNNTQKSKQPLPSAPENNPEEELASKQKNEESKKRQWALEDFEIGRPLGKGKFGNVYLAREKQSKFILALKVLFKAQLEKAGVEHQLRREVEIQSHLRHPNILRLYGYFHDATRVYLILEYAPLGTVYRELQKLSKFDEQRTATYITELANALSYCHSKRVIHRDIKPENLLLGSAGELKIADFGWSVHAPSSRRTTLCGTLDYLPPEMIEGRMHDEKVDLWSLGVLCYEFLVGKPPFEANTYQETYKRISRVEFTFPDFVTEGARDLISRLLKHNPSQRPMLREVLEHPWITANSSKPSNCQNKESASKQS
# test-method-notes: Aurora A enzyme assay (Caliper LC3000 mobility shift)
pIC50: −log10 of the molar value.
Exercise: for every item that follows, state its recorded pIC50.

NC(=O)[C@H]1[C@H]2C[C@H]3[C@H]1Nc1nc(ncc1F)Nc1cccc(c1)CNC(=O)N[C@@H]3C2; 7.00 to 9.00

Please go through the list and note pIC50 for each compound.
1. NC(=O)[C@H]1[C@@H]2CC3CNC(=O)c4cccc(c4)Nc4ncc(F)c(n4)N[C@@H]1[C@@H]3C2 (some centres unmarked) [drawing 259]
2. NC(=O)[C@H]1[C@H]2C[C@H]3[C@H]1Nc1nc(ncc1F)Nc1cc(ccc1O)C(=O)CS[C@@H]3C2
3. NC(=O)[C@H]1[C@@H]2CC3CNC(=O)Nc4cccc(c4)Nc4ncc(F)c(n4)N[C@@H]1[C@@H]3C2 (some centres unmarked)
4. NC(=O)[C@H]1[C@H]2C[C@H]3[C@H]1Nc1nc(ncc1F)Nc1cccc(c1)CSS[C@@H]3C2 [drawing 213]
5. CN1CCN(c2ccc3cc2COC(=O)N[C@@H]2C[C@@H]4C[C@H]2[C@@H](Nc2nc(ncc2F)N3)[C@H]4C(N)=O)CC1
6. CN1Cc2cccc(c2)Nc2ncc(F)c(n2)N[C@@H]2[C@@H]3C[C@@H](C[C@H]3C1)[C@@H]2C(N)=O
7. Fc1cnc2nc1N[C@@H]1CCC[C@H](C1)OCCCCOc1cccc(c1)N2

7.00 to 9.00
5.20 to 6.00
6.00 to 7.00
7.00 to 9.00
7.00 to 9.00
5.20 to 6.00
6.00 to 7.00
